# Target entity: T1, Mcl-1, Q07820
# T1 chain: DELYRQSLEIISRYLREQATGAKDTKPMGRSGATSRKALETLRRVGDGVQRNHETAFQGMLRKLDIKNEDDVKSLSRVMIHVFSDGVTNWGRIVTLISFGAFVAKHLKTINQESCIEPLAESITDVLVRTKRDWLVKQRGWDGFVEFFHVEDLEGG
# Test details: peptide SPOT array, c-Myc-tagged receptor at 1 uM or 100 nM, anti-c-Myc-Cy3
Reported property: SPOT signal as a fraction of Bim BH3's signal on the same receptor and array
# answer = number (no unit)

[[record]]
binder = "DHTDGVVACAAGLIGDLCTAFGKDVL [KPNB1]"
observed_measurement = 0.02


Next:
Q: Fill in the blank: the reported SPOT signal as a fraction of Bim BH3's signal on the same receptor and array of TAAAAYRGAHDRGRGRTVYNTFRAAA [XXXX] is ____.
A: 1.43
